Target: acetylcholinesterase from electric eel (Electrophorus electricus, UniProt O42275)
Construct: purchased Sigma Chemical; host or cells: electric eel
Sequence (O42275 24-633): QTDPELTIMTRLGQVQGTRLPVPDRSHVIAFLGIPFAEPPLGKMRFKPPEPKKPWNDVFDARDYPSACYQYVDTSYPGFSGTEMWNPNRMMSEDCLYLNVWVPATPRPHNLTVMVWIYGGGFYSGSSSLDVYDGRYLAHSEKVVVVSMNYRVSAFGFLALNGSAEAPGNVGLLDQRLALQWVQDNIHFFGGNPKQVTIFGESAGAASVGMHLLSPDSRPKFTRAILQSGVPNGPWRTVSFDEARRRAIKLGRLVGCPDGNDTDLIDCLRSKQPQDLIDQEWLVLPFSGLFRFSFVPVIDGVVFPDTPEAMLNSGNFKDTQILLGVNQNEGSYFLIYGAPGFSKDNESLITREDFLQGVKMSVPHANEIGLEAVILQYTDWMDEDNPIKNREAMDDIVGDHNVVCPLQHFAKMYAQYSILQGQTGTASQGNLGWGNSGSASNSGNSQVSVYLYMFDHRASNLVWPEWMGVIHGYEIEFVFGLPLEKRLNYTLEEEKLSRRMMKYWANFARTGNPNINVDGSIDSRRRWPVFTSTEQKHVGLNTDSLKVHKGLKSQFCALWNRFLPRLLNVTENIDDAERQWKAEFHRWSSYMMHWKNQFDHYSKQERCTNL
Assay: biochemical
Conditions: Cholinesterase Inhibition IC50, AChE E.eel, contact time 30'
readout.name: IC50

compound: CN1CCN(CCCCCCCCNC(=O)Oc2ccc3c(c2)[C@]2(C)CCN(C)[C@@H]2N3C)CC1 [MF 230]
IC50: 80 nM

Exercise: Requested field: IC50. Item: CCN(CC)CCCCCCCCNC(=O)Oc1ccc2c(c1)[C@]1(C)CCN(C)[C@@H]1N2C [MF 237]
Key: 190 nM

---

Target: acetylcholinesterase from homogenate of in toto rat brain (Rattus norvegicus)
Construct: acetylcholinesterase from homogenate of in toto rat brain
Sequence (P37136 32-614): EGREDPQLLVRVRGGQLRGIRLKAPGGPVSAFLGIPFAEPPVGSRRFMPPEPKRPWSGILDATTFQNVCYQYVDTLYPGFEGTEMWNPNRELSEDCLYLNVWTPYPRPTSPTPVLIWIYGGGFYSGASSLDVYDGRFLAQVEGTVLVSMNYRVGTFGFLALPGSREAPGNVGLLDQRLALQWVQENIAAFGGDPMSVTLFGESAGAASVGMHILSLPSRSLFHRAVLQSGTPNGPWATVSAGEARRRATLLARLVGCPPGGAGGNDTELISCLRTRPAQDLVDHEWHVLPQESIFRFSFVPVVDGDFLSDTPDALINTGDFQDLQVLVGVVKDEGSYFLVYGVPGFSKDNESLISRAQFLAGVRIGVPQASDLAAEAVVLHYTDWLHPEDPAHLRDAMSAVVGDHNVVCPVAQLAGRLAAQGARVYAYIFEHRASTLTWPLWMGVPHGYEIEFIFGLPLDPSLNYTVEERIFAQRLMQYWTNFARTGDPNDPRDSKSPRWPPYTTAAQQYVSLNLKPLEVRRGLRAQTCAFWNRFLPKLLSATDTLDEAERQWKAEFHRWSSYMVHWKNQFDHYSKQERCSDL
Assay: Inhibition of acetylcholinesterase from rat brain homogenate
Settings: contact time 10'; read-out: Cholinesterase Inhibition IC50, AChE rat brain
pIC50: −log10 of the molar value.
Rule: Criterion met for pIC50 not less than 6, Criterion not met for anything less.

query.smiles: CN1CC[C@@]2(C)c3cc(OC(=O)NCCCCCN4CCOCC4)ccc3N(C)[C@@H]12
assigned.class: Criterion not met

query.smiles: CN1CC[C@@]2(C)c3cc(OC(=O)NCCCCCCCCCCCCN4CCOCC4)ccc3N(C)[C@@H]12
assigned.class: Criterion met

query.smiles: CN1CC[C@@]2(C)c3cc(OC(=O)NCCCCCCCN4CCOCC4)ccc3N(C)[C@@H]12
assigned.class: Criterion not met

Turning to the following compound.
Exercise: Please check the record `CN1CC[C@@]2(C)c3cc(OC(=O)NCCCCCCN4CCOCC4)ccc3N(C)[C@@H]12` and state if its pIC50 is at or above 6.
Key: Criterion not met

---

Target: acetylcholinesterase from human red blood cells (Homo sapiens, UniProt P22303)
Construct: purchased Sigma Chemical; host or cells: human erythrocyte
Sequence (P22303 32-617 isoform P22303-2 limits assumed): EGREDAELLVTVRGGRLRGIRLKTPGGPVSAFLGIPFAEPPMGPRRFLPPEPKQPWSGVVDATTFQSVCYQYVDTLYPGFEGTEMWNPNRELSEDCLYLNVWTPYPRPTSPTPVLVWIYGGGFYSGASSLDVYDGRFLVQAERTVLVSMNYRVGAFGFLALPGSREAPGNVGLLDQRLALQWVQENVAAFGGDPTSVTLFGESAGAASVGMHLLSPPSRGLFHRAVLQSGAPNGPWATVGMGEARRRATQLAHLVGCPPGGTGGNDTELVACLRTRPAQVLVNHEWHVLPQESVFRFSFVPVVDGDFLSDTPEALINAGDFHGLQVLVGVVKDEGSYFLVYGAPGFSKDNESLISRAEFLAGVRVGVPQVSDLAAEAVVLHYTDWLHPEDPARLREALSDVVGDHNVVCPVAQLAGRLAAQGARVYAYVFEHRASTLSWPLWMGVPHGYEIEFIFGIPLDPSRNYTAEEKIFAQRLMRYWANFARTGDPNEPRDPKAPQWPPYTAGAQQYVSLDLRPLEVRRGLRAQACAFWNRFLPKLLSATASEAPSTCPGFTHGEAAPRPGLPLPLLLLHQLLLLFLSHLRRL
Assay: Inhibition of acetylcholinesterase from human erythrocyte (Ellman colorimetric method)
Format: biochemical
Settings: read-out: Cholinesterase Inhibition IC50, AChE hRBC; contact time 60'
readout.name: IC50 (µM)
Answers are plain numbers, in µM.

Exercise: Requested field: IC50. Item: CN1CC[C@@]2(C)c3cc(OC(=O)N4CCOCC4)ccc3N(C)[C@@H]12 [MF 215, reference compound]
Key: 16

---

Target: acetylcholinesterase from human red blood cells (Homo sapiens)
Construct: purchased Sigma Chemical; host or cells: human erythrocyte
Test: Inhibition of acetylcholinesterase from human erythrocyte (Ellman colorimetric method)
Type: biochemical
Settings: contact time 10'; read-out: Cholinesterase Inhibition IC50, AChE hRBC
readout.name: IC50 (nM)
One number for each entry, in nM.

compound: CN1CC[C@@]2(C)c3cc(OC(=O)NCCN4CCOCC4)ccc3N(C)[C@@H]12 [MF 214, N-morpholinylethylcarbamoyleseroline]
measured: 700

Provide the reported IC50 of each entry below, same order.
1. CN1CC[C@@]2(C)c3cc(OC(=O)NCCCCCN4CCOCC4)ccc3N(C)[C@@H]12 [MF 225, N-morpholinylpentylcarbamoyleseroline]
2. CN1CC[C@@]2(C)c3cc(OC(=O)NCCCCCCCCCN4CCOCC4)ccc3N(C)[C@@H]12 [MF 233]
3. CN1CC[C@@]2(C)c3cc(OC(=O)NCCCN4CCOCC4)ccc3N(C)[C@@H]12 [MF 218, N-morpholinylpropylcarbamoyleseroline]
4. CN1CC[C@@]2(C)c3cc(OC(=O)NCCCCCCCCCCCN4CCOCC4)ccc3N(C)[C@@H]12 [MF 232]
5. CN1CC[C@@]2(C)c3cc(OC(=O)NCCCCCCCN4CCOCC4)ccc3N(C)[C@@H]12 [MF 224, N-morpholinylheptylcarbamoyleseroline]

Key:
[7600, 60, 3800, 40, 380]

Provide the reported IC50 of each entry below, same order.
1. CN1CC[C@@]2(C)c3cc(OC(=O)NCCCCCCCCCCN4CCOCC4)ccc3N(C)[C@@H]12 [MF 231]
2. CN1CC[C@@]2(C)c3cc(OC(=O)NCCCCCCN4CCOCC4)ccc3N(C)[C@@H]12 [MF 227, N-morpholinylhexylcarbamoyleseroline]
3. CN1CC[C@@]2(C)c3cc(OC(=O)NCCCCCCCCCCCCN4CCOCC4)ccc3N(C)[C@@H]12 [MF 228, N-morpholinyldodecylcarbamoyleseroline]

Key:
1. 40
2. 930
3. 70
